Target: Muscarinic acetylcholine receptor M2 (Rattus norvegicus)
Assay: Muscarinic 2 receptor agonistic activity was determined as the selectivity ratio of Ki against [3H]QNB+ Gpp(NH)p to that of [3H]QNB
Type: functional
Outcome measure: Ratio

Request: So what Ratio did `CC(C)(C)OC(=O)N1CCC[C@@H]1C#CCN1CCCC1` get with Muscarinic acetylcholine receptor M2 (Rattus norvegicus)?
Result: 1.5

Request: So what Ratio did `CC(=O)N1CCC[C@H]1C#CCN(C)C` get with Muscarinic acetylcholine receptor M2 (Rattus norvegicus)?
Result: 3.4

Request: So what Ratio did `CC(=O)N1CCC[C@@H]1C#CC[N+](C)(C)C` get with Muscarinic acetylcholine receptor M2 (Rattus norvegicus)?
Result: 2.6

Request: So what Ratio did `O=C1CCCN1CC#CCN1CCCC1` get with Muscarinic acetylcholine receptor M2 (Rattus norvegicus)?
Result: 35

Request: So what Ratio did `CS(=O)(=O)N1CCC[C@H]1C#CCN1CCCC1.Cl` get with Muscarinic acetylcholine receptor M2 (Rattus norvegicus)?
Result: 1.6

Request: So what Ratio did `CC(=O)N1CCC[C@H]1C#CC[N+](C)(C)C` get with Muscarinic acetylcholine receptor M2 (Rattus norvegicus)?
Result: 2.9

----------
Biological target: Muscarinic acetylcholine receptor
Test: Binding activity to muscarinic acetylcholine receptor in rat heart, assayed using [3H]-QNB as a radioligand.
Entries whose Ki is below 10 µM take class 1; entries at or above 10 µM take class 0.

Request: Please state whether Ki is below 10 µM for `CN(C)CC#C[C@H]1CCCN1.Cl.Cl`
Result: class 0

Request: Please state whether Ki is below 10 µM for `CS(=O)(=O)N1CCC[C@H]1C#CCN1CCCC1.Cl`
Result: class 1

Request: Please state whether Ki is below 10 µM for `CC(C)(C)OC(=O)N1CCC[C@H]1C#CCN1CCCC1`
Result: class 1

Request: Please state whether Ki is below 10 µM for `CC(=O)N1CCC[C@@H]1C#CCN(C)C`
Result: class 0

Request: Please state whether Ki is below 10 µM for `CN(C)CC#C[C@@H]1CCCN1C(=O)OC(C)(C)C`
Result: class 0

Request: Please state whether Ki is below 10 µM for `CC(=O)N1CCC[C@@H]1C#CCN1CCCC1.Cl`
Result: class 1

Request: Please state whether Ki is below 10 µM for `O=CN1CCC[C@H]1C#CCN1CCCC1`
Result: class 1

----------
Molecular target: Muscarinic acetylcholine receptor
Assay: Binding activity to muscarinic acetylcholine receptor in rat heart, assayed using [3H]-QNB as a radioligand.
Outcome measure: log10 of Ki (log10 of the value in µM)
Answers are given as log10 of Ki in µM.

Request: Which log10 of Ki reading was recorded for the compound `CC(=O)N1CCC[C@H]1C#CCN1CCCC1.Cl` ?
Result: 1.19

Request: Which log10 of Ki reading was recorded for the compound `COC(=O)N1CCC[C@H]1C#CCN1CCCC1` ?
Result: 0.65

Request: Which log10 of Ki reading was recorded for the compound `C(#C[C@@H]1CCCN1)CN1CCCC1.Cl.Cl` ?
Result: 0.19

Request: Which log10 of Ki reading was recorded for the compound `CN(C)CC#C[C@H]1CCCN1C(=O)OC(C)(C)C` ?
Result: 0.71

Request: Which log10 of Ki reading was recorded for the compound `CCOC(=O)N1CCC[C@@H]1C#CCN1CCCC1` ?
Result: -0.03

Request: Which log10 of Ki reading was recorded for the compound `C(#C[C@H]1CCCN1)CN1CCCC1.Cl.Cl` ?
Result: 1.11

Request: Which log10 of Ki reading was recorded for the compound `COC(=O)N1CCC[C@@H]1C#CCN1CCCC1` ?
Result: 0.47

Request: Which log10 of Ki reading was recorded for the compound `CS(=O)(=O)N1CCC[C@@H]1C#CCN1CCCC1.Cl` ?
Result: 0.77

Request: Which log10 of Ki reading was recorded for the compound `O=C1CCCN1CC#CCN1CCCC1` ?
Result: -2.40

Request: Which log10 of Ki reading was recorded for the compound `CC(=O)N1CCC[C@H]1C#CCN(C)C` ?
Result: 1.71

Request: Which log10 of Ki reading was recorded for the compound `CCOC(=O)N1CCC[C@H]1C#CCN1CCCC1` ?
Result: -0.07

Request: Which log10 of Ki reading was recorded for the compound `CN(C)CC#C[C@@H]1CCCN1.Cl.Cl` ?
Result: 1.30

Request: Which log10 of Ki reading was recorded for the compound `CC(C)(C)OC(=O)N1CCC[C@@H]1C#CCN1CCCC1` ?
Result: 0.12

Request: Which log10 of Ki reading was recorded for the compound `CC(=O)N1CCC[C@@H]1C#CC[N+](C)(C)C` ?
Result: 0.32

Request: Which log10 of Ki reading was recorded for the compound `CC(=O)N1CCC[C@H]1C#CC[N+](C)(C)C` ?
Result: 1.21

Request: Which log10 of Ki reading was recorded for the compound `Cl.O=C(N1CCC[C@H]1C#CCN1CCCC1)C(F)(F)F` ?
Result: 0.81

Request: Which log10 of Ki reading was recorded for the compound `Cl.O=C(N1CCC[C@@H]1C#CCN1CCCC1)C(F)(F)F` ?
Result: 0.09

Request: Which log10 of Ki reading was recorded for the compound `O=CN1CCC[C@@H]1C#CCN1CCCC1` ?
Result: 0.51
